assay: Passive permeability in human Caco2 cells; format: ADME, cell-based; settings: caco-2
Readout name: permeability (%)

[[record]]
compound = "CCCN1CCN(c2ccccc2OC)CC1"
measured_number = 100

[[record]]
compound = "CCCN1[C@H]2CC[C@H]1CC(c1ccc(OC)c(OC)c1)C2 (relative stereo)"
measured_number = 99

[[record]]
compound = "CCCN1CCC(c2ccccc2OC)CC1"
measured_number = 100

[[record]]
compound = "CCCN1[C@@H]2COC[C@H]1CN(c1ccccc1OC)C2"
measured_number = 100

[[record]]
compound = "CCCN1C[C@H]2OC[C@@H]1C[C@H]2c1ccccc1OC"
measured_number = 100

[[record]]
compound = "CCCN1[C@H]2CC[C@H]1CC(c1cc(OC)c(OC)c(OC)c1)C2 (relative stereo)"
measured_number = 99

